Experiment: yeast display, Sf9 membrane polyspecificity reagent, FACS + sequencing; frameworks hold sequencing errors
endpoint: polyreactivity (PSR sort gate)

sequence=QVQLVESGGGLVQAGGSLRLICAASGRTFGTNTMGWYRQAPGKERELVATISSSSGSTYYADSVKGRFTISRDNAKNTVYLQMNSLKPEDSAVYYWAALYRWGYKRYDYWGQGTQVTVSS reported_value="high polyreactivity"
sequence=QVQLVESGGGLVQAGGSLRLSCAASGSTFAGYTMGWYRQAPGKERELVAAITGGGSTYYADSVKGRFTISRDNAKNTVYLQMNSLKPEDTAVYYCAARWWTYGIGYGYWGQGTQVTVSS reported_value="high polyreactivity"
sequence=QVQLVESGGGLVQAGGSLRLSCAASGSTFTTNAMGWYRQAPGKERELVAAISSGGRTYYADSVKGRFTISRDNAKNTVYLQMNRLKPEDTAVYYCAAEIYYSIYQGSRFYYRGQGTQVTVSS reported_value="high polyreactivity"

---

Assay: yeast display, Sf9 membrane polyspecificity reagent, FACS + sequencing; frameworks hold sequencing errors
endpoint: polyreactivity (PSR sort gate)

Here are 5 sequences together with their reported answers.
sequence=QVQIVESGGGLVQAGGSLRLSCAASGSIFGANDMGWYRQAPGKERELVAAISTRGGRTYYADSVKGRFTISRDNEMNTVYLHMNSLKPEDTAVYYCDTSGGRPYKYEYWGQGTQVTVSS reported_value="high polyreactivity"
sequence=QVQLVESGGGLVQAGGSLRLSCAASGSIFGWYAMGWYRQAPGKERELVATISSGGSTSYADSVKGRFTISRDNAKNTVYLQMKSLKPEDTAVYYCAADIYPDWIYLLYGYWGQGTQVTVSS reported_value="low polyreactivity"
sequence=QVQLVESGGGLVQAGGSLRLSCAASGITLGYYAMGWYRQAPGKERELVAAISYRGGNTYYADSVKGRFTISRDNAKNTVYLQRNSLKPEDTAVYYCNADLGYESGWWSKYDYWGQGTQVTVSS reported_value="low polyreactivity"
sequence=QVQLVESGGGLVQAGGSLRLSCAASGRIFYINAMGWYRQAPGKERELVAAISWSGSSTYYADSVKGRFTISRDNAKNTIYLQMNSLKPEDTAVYYCATVYYDNHYSAGYDYRGQGTQVTVSS reported_value="high polyreactivity"
sequence=QVQLVESGGGLVQAGGSLRLSCAASGLTFWLNAMGWYRQAPGKERELVAAIRYSGGGTYADSVKGRFTISRDNAKNTVYLQMNSLKPEDPAVYYCAALYNLGYPQFDYWGQGTQVTVSS reported_value="low polyreactivity"

Shift focus to the following entry.
Assign polyreactivity (PSR sort gate) to the following record: QVQLVESGGGLVQAGGSLRLSCAASGSTLGAYAMGWSRQAPGKERELVAAISRSGGNTYYADSVKGRFTISRDNAKNTVYLQMNSLKPDDTAVYYCAAVRLYRYDYWGQGTQVTVSS low polyreactivity
